Each recorded value in this set is attributed to patent US20160362487A1.

Quick reference: kon of the listed items.
- target_of_assay: T1, human IL-33 (R&D Systems, #3625-IL-010/CF) (human, UniProt O95760 112-270)
- T1 construct: Commercial recombinant protein; also called hIL-33; interleukin-33
- T1 sequence (looked up): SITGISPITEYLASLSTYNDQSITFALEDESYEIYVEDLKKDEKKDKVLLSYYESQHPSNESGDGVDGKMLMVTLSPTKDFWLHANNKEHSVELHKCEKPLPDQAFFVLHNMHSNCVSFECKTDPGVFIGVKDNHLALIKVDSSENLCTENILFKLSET
- assay_comment: SPR 37C pH7.4, mAb captured
- Protocol: Equilibrium dissociation constants (KD values) for IL-33 binding to purified anti-IL-33 monoclonal antibodies were determined using a real-time surface plasmon resonance biosensor using a Biacore 4000 instrument. […] Association of either hIL-33 or MfIL-33-6His to the captured monoclonal antibody was monitored for 4 minutes and their dissociation in ABS-ET running buffer was monitored for 10 minutes. […]
Only the number, expressed in M⁻¹ s⁻¹, is required.

Recorded results for 4 binders are shown here.
binder	observed_value
H4H9672P (antibody, human IgG4, V domains shown, Human IgG4 Fc (H4H)) VH: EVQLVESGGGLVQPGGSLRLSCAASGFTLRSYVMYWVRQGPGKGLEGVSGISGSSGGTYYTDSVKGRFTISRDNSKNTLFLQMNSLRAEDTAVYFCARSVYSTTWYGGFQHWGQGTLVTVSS VL: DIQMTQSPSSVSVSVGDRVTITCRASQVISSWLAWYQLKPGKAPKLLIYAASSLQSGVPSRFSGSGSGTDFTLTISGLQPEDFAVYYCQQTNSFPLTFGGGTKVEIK	1.09e+06
H4H9663P (antibody, human IgG4, V domains shown, Human IgG4 Fc (H4H)) VH: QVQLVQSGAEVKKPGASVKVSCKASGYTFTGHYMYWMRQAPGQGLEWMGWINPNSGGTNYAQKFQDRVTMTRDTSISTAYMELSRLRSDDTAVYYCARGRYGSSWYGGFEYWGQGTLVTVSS VL: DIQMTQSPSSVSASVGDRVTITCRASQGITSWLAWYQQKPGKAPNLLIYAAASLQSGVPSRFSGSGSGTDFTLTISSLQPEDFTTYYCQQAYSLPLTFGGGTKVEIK	1.83e+06
H4H9666P (antibody, human IgG4, V domains shown, Human IgG4 Fc (H4H)) VH: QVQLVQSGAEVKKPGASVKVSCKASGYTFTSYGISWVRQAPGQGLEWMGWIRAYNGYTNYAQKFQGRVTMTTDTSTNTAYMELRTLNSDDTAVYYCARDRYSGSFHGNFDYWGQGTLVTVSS VL: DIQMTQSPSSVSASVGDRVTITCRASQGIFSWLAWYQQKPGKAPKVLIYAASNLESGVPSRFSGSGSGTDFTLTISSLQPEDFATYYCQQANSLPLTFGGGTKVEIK	1.13e+06
H4H9660P (antibody, human IgG4, V domains shown, Human IgG4 Fc (H4H)) VH: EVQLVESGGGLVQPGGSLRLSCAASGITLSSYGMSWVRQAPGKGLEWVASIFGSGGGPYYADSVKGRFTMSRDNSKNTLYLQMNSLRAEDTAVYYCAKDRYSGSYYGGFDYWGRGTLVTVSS VL: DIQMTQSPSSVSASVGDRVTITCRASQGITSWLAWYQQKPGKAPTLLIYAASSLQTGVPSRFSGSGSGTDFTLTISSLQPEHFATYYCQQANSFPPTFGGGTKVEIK	803000

Now consider the entry below.
I have this binder here, H4H9640P (antibody, human IgG4, V domains shown, Human IgG4 Fc (H4H)) VH: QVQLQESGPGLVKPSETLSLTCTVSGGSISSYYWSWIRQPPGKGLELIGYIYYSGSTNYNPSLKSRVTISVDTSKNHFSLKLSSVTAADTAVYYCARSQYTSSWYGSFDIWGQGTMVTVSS VL: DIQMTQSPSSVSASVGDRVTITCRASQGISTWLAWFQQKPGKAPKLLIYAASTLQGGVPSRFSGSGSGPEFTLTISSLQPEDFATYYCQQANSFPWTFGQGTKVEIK , and I need its recorded kon. 1.15e+06
